Molecular target: Adrenergic receptor alpha-2 (Rattus norvegicus, UniProt P22086+P19328+P22909)
Sequence (P22086 whole entry): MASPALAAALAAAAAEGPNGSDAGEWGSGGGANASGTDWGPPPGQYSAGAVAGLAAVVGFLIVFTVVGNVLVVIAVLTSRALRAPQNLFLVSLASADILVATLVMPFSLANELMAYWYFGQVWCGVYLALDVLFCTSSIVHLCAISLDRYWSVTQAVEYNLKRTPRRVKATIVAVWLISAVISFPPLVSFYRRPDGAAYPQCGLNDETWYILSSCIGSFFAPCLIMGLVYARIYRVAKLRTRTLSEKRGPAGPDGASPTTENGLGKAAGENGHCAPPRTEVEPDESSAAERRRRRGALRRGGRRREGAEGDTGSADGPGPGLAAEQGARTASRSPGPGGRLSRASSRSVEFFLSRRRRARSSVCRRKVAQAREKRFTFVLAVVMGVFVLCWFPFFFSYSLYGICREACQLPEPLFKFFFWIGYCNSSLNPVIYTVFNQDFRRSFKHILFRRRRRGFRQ
Sequence (P19328 whole entry): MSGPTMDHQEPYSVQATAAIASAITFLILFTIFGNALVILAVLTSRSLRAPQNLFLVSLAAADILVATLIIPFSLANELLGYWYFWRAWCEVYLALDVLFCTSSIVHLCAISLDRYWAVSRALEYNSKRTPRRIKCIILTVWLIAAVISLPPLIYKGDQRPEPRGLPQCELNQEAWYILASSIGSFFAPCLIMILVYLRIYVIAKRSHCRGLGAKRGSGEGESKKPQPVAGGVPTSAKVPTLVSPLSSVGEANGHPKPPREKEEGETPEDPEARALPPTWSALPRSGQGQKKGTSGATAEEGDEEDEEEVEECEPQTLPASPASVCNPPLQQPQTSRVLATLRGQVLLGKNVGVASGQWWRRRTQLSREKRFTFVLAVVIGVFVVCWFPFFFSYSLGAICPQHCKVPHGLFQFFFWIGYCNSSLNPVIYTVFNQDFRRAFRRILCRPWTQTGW
Sequence (P22909 whole entry): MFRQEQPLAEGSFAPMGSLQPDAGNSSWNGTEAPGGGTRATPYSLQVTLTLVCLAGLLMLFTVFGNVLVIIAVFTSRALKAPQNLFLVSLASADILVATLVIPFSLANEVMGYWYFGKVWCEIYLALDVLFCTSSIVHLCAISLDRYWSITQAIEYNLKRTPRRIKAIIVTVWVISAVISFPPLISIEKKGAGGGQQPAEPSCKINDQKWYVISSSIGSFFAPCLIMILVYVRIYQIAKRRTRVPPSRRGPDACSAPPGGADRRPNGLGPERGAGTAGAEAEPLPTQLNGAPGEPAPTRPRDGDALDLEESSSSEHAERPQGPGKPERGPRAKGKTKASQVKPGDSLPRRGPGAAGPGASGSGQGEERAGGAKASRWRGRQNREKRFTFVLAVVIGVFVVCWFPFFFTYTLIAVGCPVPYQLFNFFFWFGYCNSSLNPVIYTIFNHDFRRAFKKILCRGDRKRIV
Test: Inhibition of Sprague-Dawley rat alpha-2 adrenergic receptor
VALUE_TYPE: Ki (µM)

[[record]]
molecule = "Br.Cc1cccc(NC2=N[C@H](CCN)CN2)n1"
unit_descriptor = "µM"
observed_result = 4.907

[[record]]
molecule = "Br.NCC[C@H]1CNC(CN(Cc2ccccc2)c2ccccc2)=N1"
unit_descriptor = "µM"
observed_result = 481.8

[[record]]
molecule = "Br.NCC[C@H]1CNC(Nc2cccc(C(F)(F)F)c2)=N1"
unit_descriptor = "µM"
observed_result = 3.007

[[record]]
molecule = "Br.CCC1(C2=N[C@@H](CCN)CN2)Cc2ccccc2O1 (some centres undefined)"
unit_descriptor = "µM"
observed_result = 20.35

[[record]]
molecule = "Br.NCC[C@H]1CNC(NCc2ccccc2)=N1"
unit_descriptor = "µM"
observed_result = 5.539

[[record]]
molecule = "Br.NCC[C@H]1CNC(C2COc3ccccc3O2)=N1 (some centres undefined)"
unit_descriptor = "µM"
observed_result = 24.02

[[record]]
molecule = "Br.NCC[C@@H]1CNC(Nc2c(Cl)cccc2Cl)=N1"
unit_descriptor = "µM"
observed_result = 4.315

[[record]]
molecule = "Br.CCC1(C2=N[C@H](CCN)CN2)Cc2ccccc2O1 (some centres undefined)"
unit_descriptor = "µM"
observed_result = 0.869

[[record]]
molecule = "Br.NCC[C@@H]1CNC(Nc2ccc(Cl)cc2Cl)=N1"
unit_descriptor = "µM"
observed_result = 16.92

[[record]]
molecule = "Br.NCC[C@H]1CNC(Nc2ccccc2Br)=N1"
unit_descriptor = "µM"
observed_result = 1.553

[[record]]
molecule = "Br.NCC[C@H]1CNC(Nc2cccnc2)=N1"
unit_descriptor = "µM"
observed_result = 19.66

[[record]]
molecule = "Br.COc1ccc(NC2=N[C@@H](CCN)CN2)cc1"
unit_descriptor = "µM"
observed_result = 9.376

[[record]]
molecule = "Br.NCC[C@@H]1CNC(C2COc3ccccc3O2)=N1 (some centres undefined)"
unit_descriptor = "µM"
observed_result = 5.412

[[record]]
molecule = "Br.Cc1cccc(NC2=N[C@@H](CCN)CN2)n1"
unit_descriptor = "µM"
observed_result = 0.445


Data origin, for the record: ChEMBL document CHEMBL1641382
